Here the recorded Imp (impedance), % change from baseline is given for each entry.
- System: hiPSC-CMs (iCell-Cardiomyocytes^2)
- assay.explanation: MEA impedance (cytotoxicity readout) in hiPSC-CMs
- run.conditions: 0.3 µM, 72h
- Description: Cells were seeded according to the instructions of the cell provider, in fibronectin-coated 48-well MEA plates (Axion Cytoview Plates, M768-tMEA-48B) at a density suited to form a monolayer (i.e., 50 K/well) and maintained in culture in a stage incubator (37°C, 5% CO2). At least 4 h before the beginning of the baseline measurements, a full medium exchange was performed (to a final volume of 400 µL per well). […]
The reply should be a number in %, with the unit left off.

Below, each entry is followed by its recorded Imp (impedance), % change from baseline result.
{"compound": "N=C(N)c1ccc(OCCCCCOc2ccc(C(=N)N)cc2)cc1", "target": "hiPSC-CMs (iCell-Cardiomyocytes^2)", "Imp (impedance), % change from baseline / %": -8}
{"compound": "COc1cc2c(Nc3ccc(Br)cc3F)ncnc2cc1OCC1CCN(C)CC1", "target": "hiPSC-CMs (iCell-Cardiomyocytes^2)", "Imp (impedance), % change from baseline / %": -5}

Which measured Imp (impedance), % change from baseline value corresponds to CC(C)(Sc1cc(C(C)(C)C)c(O)c(C(C)(C)C)c1)Sc1cc(C(C)(C)C)c(O)c(C(C)(C)C)c1 ?
-4

Which measured Imp (impedance), % change from baseline value corresponds to C#Cc1cccc(Nc2ncnc3cc(OCCOC)c(OCCOC)cc23)c1 ?
-5

Which measured Imp (impedance), % change from baseline value corresponds to COc1nc(N)nc2c1ncn2[C@@H]1O[C@H](COP(=O)(N[C@@H](C)C(=O)OCC(C)(C)C)Oc2cccc3ccccc23)[C@@H](O)[C@@]1(C)O (stereo partly drawn) ?
-8

Which measured Imp (impedance), % change from baseline value corresponds to O=C(O)COCCN1CCN(C(c2ccccc2)c2ccc(Cl)cc2)CC1 (stereo not drawn) ?
-5

Which measured Imp (impedance), % change from baseline value corresponds to CCN(CC)CCNC(=O)c1c(C)[nH]c(/C=C2\C(=O)Nc3ccc(F)cc32)c1C ?
-3

Which measured Imp (impedance), % change from baseline value corresponds to COc1cccc2c1C(=O)c1c(O)c3c(c(O)c1C2=O)C[C@@](O)(C(=O)CO)C[C@@H]3O[C@H]1C[C@H](N)[C@H](O)[C@H](C)O1 ?
-70

Which measured Imp (impedance), % change from baseline value corresponds to Cc1cn(-c2cc(NC(=O)c3ccc(C)c(Nc4nccc(-c5cccnc5)n4)c3)cc(C(F)(F)F)c2)cn1 ?
-2
